Molecular target: MALT1 (Homo sapiens, UniProt Q9UDY8)
Construct: endogenous in cells; host or cells: Jurkat clone E6-1 (ATCC)
Sequence (Q9UDY8 1-824): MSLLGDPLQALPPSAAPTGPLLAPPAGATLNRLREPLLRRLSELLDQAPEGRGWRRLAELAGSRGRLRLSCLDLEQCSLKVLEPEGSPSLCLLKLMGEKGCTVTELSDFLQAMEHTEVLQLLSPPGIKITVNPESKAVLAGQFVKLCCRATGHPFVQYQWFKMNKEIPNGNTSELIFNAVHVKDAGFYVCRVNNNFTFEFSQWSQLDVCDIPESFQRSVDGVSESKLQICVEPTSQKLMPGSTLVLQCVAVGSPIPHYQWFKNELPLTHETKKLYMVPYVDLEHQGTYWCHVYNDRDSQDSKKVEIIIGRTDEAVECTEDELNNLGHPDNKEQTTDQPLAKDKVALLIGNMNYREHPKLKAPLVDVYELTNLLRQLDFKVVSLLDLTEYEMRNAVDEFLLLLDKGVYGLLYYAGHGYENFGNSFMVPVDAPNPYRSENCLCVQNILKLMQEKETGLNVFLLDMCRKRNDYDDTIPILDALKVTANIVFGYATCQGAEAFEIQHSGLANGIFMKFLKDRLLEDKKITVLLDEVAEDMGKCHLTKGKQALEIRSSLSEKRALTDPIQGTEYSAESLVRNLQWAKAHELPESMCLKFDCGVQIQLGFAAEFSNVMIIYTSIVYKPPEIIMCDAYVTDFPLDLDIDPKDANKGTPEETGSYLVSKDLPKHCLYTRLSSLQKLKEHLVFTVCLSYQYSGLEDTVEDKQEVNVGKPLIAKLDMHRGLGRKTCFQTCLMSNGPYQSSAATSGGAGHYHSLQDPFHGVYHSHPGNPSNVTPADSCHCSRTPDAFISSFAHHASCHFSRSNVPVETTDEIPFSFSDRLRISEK
Experiment: HOIL1 cleavage assay (in-cell MALT1 protease activity, Jurkat E6-1)
Type: cell-based
Conditions: Jurkat E6-1, PMA/Ionomycin-induced cleavage of HOIL1, 60 minutes
endpoint: IC50

Requested read-out: IC50. Entry: CO[C@@H](C)c1c(NC(=O)Nc2cnc(-n3cc(CN)cn3)c(Cl)c2)cnc2cc(Cl)nn12
0.04 µM

###

Measured IC50, listed per entry.
system: IL-2 expression in Jurkat (E6-1) cells; experiment: IL-2 expression assay (down-stream MALT1 activity, Jurkat E6-1); type: cell-based; settings: Homo sapiens; Jurkat E6-1, PMA/Ionomycin stimulation, 24 hours
Express your answer in µM, writing the number without its unit.

Examples with their reported IC50 follow.
- compound: "CO[C@@H](C)c1c(NC(=O)Nc2cnc(-n3nccn3)c(Cl)c2)cnc2cc(Cl)nn12 [Example 2]"
  IC50 (µM): 0.01
- compound: "CO[C@@H](C)c1c(NC(=O)Nc2cnc(-n3cc(CN)cn3)c(Cl)c2)cnc2cc(Cl)nn12 [Example 1]"
  IC50 (µM): 0.03

We next turn to a different compound, shown below.
Under IL-2 expression in Jurkat (E6-1) cells: IC50 value of CO[C@@H](C)c1c(NC(=O)Nc2ccnc(C(F)(F)F)c2)cnc2cc(Cl)nn12 [Example 3] ?
0.02

###

Target: Full-length MALT1 enzyme (Homo sapiens, UniProt Q9UDY8)
Construct: Full-length MALT1 enzyme at 2 nM was assayed in 50 mM HEPES
Sequence (Q9UDY8 1-824): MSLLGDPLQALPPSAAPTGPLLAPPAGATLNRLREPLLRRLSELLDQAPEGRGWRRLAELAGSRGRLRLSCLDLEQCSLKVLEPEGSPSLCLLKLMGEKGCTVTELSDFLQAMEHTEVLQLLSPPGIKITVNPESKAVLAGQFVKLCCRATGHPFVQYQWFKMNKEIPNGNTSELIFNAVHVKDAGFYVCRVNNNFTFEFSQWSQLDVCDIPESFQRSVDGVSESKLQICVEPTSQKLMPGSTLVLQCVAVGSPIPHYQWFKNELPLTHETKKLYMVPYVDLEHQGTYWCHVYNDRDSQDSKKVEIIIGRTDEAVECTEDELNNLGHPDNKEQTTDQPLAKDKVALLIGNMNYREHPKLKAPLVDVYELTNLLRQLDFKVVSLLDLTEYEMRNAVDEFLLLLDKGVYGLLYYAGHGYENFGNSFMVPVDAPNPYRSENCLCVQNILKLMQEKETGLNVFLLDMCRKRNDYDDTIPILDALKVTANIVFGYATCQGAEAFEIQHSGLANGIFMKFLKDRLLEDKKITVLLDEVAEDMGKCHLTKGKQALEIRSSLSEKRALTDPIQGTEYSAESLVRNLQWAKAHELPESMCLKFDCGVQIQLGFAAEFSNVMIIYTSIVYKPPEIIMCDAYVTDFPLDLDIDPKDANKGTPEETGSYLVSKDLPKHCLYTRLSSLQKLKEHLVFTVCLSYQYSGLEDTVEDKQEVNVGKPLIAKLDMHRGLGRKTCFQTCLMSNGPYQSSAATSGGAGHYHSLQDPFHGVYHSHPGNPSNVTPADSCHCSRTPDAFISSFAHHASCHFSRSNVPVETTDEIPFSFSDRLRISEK
Test: MALT1 biochemical assay
Conditions: 2 nM enzyme, 50 μM Ac-Leu-Arg-Ser-Arg-AMC substrate
endpoint: IC50 (nM)
Express your answer in nM, writing the number without its unit.

Requested read-out: IC50. Entry: CO[C@@H](C)c1c(NC(=O)Nc2cnc(-n3cc(CN)cn3)c(Cl)c2)cnc2cc(Cl)nn12 [Example 1]
37.5
